# method: Transcellular transport test using Caco2 cell
# Format: in vitro ADME
# conditions-used: human, Caco-2; Caco2 monolayer, A-to-B, 10 μM compound, pH 7.4, 90 minutes
Form field: Papp A→B at 90 min, 10 μM (one value per entry).

• O=C(O)C[C@H](NC(=O)CNC(=O)c1cc(NC2=NCC(F)CN2)c2cn[nH]c2c1)c1ccc(F)c(C(F)(F)F)c1 (stereo partly drawn) = > 1 ×10⁻⁶ cm/s
• O=C(O)C[C@H](NC(=O)CNC(=O)c1cc(NC2=NCC(F)CN2)c2cn[nH]c2c1)c1cccc(C(F)(F)F)c1Cl (stereo partly drawn) = > 1 ×10⁻⁶ cm/s

From here, focus on the item given below.
Please look at this compound and report its Papp A→B at 90 min, 10 μM: O=C(O)C[C@H](NC(=O)CNC(=O)c1cc(NC2=NCCCN2)c2cn[nH]c2c1)c1cc(Cl)cc(C(F)(F)F)c1
> 1 ×10⁻⁶ cm/s

---

Each record here notes measured IC50.
# subject-of-test: αvβ6 (Homo sapiens, UniProt P06756+P18564)
# Construct: endogenous in cells
# Sequence (P06756 31-889 limits assumed): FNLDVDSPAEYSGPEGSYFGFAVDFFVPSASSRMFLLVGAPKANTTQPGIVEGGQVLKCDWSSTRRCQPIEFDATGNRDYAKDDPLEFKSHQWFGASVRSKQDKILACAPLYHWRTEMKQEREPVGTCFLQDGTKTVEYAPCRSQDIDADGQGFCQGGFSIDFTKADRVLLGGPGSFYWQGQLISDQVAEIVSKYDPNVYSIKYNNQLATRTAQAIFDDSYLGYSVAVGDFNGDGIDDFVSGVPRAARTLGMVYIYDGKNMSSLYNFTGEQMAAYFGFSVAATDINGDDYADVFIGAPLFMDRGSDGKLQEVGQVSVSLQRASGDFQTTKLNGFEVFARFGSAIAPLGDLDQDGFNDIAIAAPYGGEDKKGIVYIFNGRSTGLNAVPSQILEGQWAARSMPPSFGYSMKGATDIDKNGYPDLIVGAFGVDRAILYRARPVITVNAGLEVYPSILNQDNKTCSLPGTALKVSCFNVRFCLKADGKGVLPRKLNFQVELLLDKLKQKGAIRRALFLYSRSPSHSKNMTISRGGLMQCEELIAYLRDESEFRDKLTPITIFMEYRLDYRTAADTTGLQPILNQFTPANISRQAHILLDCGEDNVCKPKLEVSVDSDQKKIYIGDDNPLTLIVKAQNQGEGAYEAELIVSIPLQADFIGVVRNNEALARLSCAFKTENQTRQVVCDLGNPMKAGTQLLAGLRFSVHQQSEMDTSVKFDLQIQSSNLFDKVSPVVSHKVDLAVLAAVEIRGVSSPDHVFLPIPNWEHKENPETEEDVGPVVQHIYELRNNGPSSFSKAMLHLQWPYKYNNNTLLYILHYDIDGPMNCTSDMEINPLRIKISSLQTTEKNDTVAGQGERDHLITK
# Sequence (P06756 891-1048 limits assumed): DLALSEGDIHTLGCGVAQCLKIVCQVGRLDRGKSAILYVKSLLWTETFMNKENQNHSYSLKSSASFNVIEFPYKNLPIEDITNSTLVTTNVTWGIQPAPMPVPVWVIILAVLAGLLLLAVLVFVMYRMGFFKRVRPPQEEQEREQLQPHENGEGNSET
# Sequence (P18564 22-788): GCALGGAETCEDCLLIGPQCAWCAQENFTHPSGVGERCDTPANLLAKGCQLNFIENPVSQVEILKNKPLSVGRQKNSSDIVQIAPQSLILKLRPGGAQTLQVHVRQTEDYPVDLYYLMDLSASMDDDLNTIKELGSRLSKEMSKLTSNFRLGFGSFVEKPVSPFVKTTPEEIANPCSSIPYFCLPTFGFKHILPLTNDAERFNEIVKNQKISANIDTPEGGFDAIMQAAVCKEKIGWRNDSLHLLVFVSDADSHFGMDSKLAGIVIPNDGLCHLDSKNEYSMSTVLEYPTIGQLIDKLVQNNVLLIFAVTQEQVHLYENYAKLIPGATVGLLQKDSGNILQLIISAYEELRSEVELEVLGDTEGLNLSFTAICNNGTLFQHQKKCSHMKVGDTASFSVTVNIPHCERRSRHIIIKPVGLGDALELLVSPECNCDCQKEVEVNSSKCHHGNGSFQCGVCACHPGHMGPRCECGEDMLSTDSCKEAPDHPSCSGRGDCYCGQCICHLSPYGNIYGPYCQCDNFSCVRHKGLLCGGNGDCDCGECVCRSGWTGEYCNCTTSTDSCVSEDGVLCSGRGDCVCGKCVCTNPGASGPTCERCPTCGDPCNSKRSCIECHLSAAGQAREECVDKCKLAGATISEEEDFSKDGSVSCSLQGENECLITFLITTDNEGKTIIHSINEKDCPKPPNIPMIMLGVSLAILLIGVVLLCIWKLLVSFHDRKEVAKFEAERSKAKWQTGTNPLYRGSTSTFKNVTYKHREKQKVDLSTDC
# method: αvβ6 cell adhesion inhibition test (HT-29 cells on recombinant human LAP protein)
# conditions-used: recombinant human LAP coating, 200 μM MnCl2, 1 hour, read-out: IC50 (rate of inhibition of cell adhesion, αvβ6)

- O=C(O)C[C@H](NC(=O)CNC(=O)c1cc(NC2=NCC(F)CN2)cc2[nH]ncc12)c1cc(Br)cc(C(F)(F)F)c1 (stereo partly drawn) [Example 53-(b)]: < 3 nM
- O=C(O)C[C@H](NC(=O)CNC(=O)c1cc(NC2=NCC(F)CN2)c2cn[nH]c2c1)c1ccc(F)c(C(F)(F)F)c1 (stereo partly drawn) [Example 13-(b)]: < 3 nM

The record that follows has no IC50 shown yet.
Fill in reported IC50 for this entry: O=C(O)C[C@H](NC(=O)CNC(=O)c1cc(NC2=NCC(F)CN2)c2cn[nH]c2c1)c1cc(Cl)cc(Cl)c1 (stereo partly drawn) [Example 17-(b)]
3 to 10 nM
